Source: patent US20200247855A1

// values below are reported pKd
# target or system: CXCL1_HUMAN (human, UniProt P09341 35-107)
# Sequence (P09341 35-107): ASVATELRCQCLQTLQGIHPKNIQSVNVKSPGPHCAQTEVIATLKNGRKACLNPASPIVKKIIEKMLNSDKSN
# protocol notes: BLI
pKd: −log10 of the molar value.

# binder, pKd
measured = [
    ("P458_IXORI (other) GSKQPGAAGSSSDSVEAVFCPTNCTKGTNGAWSGCSDDCICVHVGENTEGSCMKFSGDYDYPTPEA", 7.78),
    ("P1170_IXORI (other) LGDEDQLFSVEYCGTNCTQQDDGKWTPCSGKNGKCKCYHEDGKRYGLCLYTEYTDFSQYPNPEGSEIENTRPRP", 7.22),
    ("EVA3_RHISA (protein) LVSTIESRTSGDGADNFDVVSCNKNCTSGQNECPEGCFCGLLGQNKKGHCYKIIGNLSGEPPVVRR", 8.24),
    ("P675_IXORI (other) GSNQLSGPQSSANSNDAVFCDTNCTQGTDGAWSGCRGDCFCVHVGNSTEGRCIELIGDFDYSTPGAED", 8.00),
    ("P1166_IXORI (other) GPETKEDKKSDVYELFTVEYCGTNCTLLTNGRWTACTGKKGTCRCYHESGEKVGLCLSTEYTDFSEYPNPKSSEIDAAAPLPRETH", 7.89),
    ("P1172_IXORI (other) LHEDEIFTVDYCGTNCTKQSNGSWTTCPGNCSCYHEDGKTDGFCLSTEYTDFTQFPNLTSEEMDAATPRPE", 8.25),
    ("P1134_IXORI (other) NEEVFTVEYCGMNCTQKSDGTWTECSGKNKDCRCYHESDAREGLCLSTEYTDFSQFETPSNSDLEAATPRPRKTLYPVRNPHGPKTRGLGYDKRILRDRVKFLI", 7.56),
    ("P1124_IXORI (other) DSKGTSDSQDSTKSIKVDFCETNCTKTDGGWTGCTGDCICVSVGDSIEGRCMDFG", 8.12),
]
